Molecular target: BCL6 BTB domain (Homo sapiens, UniProt P41182, C67R/C84N/C8Q)
Assay: Electrophoretic mobility shift assay (EMSA) for complex formation of BCoR fragments with BCL6 BTB domain
Type: binding
Set-up: which is BCL6 residues 5-129, with the point mutations C8Q, C67R and C84N; made in house
Conditions: non-denaturing PAGE
No end group written: not given here.
PARAMETER: complex formation with the BCL6 BTB domain (EMSA band shift)

Illustrative cases are given below, each with its answer.
SUBSTANCE | VALUE_REPORTED
BCoR 506-522: thioredoxin-6his fusion protein with BCoR residues 506-522 (PSSWVVPGPSPNEENNG; also: thioredoxin-6His fusion protein) | do not interact
BCoR 494-510: thioredoxin-6his fusion protein with BCoR residues 494-510 (CAIYRSEIISTAPSSWV; also: thioredoxin-6His fusion protein) | do not interact
BCoR 502-522: thioredoxin-6his fusion protein with BCoR residues 502-522 (ISTAPSSWVVPGPSPNEENNG; also: thioredoxin-6His fusion protein) | complexes were present
BCoR 494-514: thioredoxin-6his fusion protein with BCoR residues 494-514 (CAIYRSEIISTAPSSWVVPGP; also: thioredoxin-6His fusion protein) | complexes were present

Query block: Please give measured complex formation with the BCL6 BTB domain (EMSA band shift) of the following entry: RSEIISTAPSSWVVPGP [BCoR 498-514]
Result block: complexes were present

The values you see were collected from patent US8703503B2.
